Source of measurements: patent US8772495B2

assay: Phase I study: pharmacokinetics after single and multiple oral doses; format: in vivo; conditions: human, plasma, po, 300 mg, single dose 300 mg, oral solution; read-out: t1/2 (converted)
observed.property: half-life (h)
Answer format: numeric, h implied, no suffix.

Return value of half-life for input CCOc1ccc(-c2ccc(Cn3c(CC(C)(C)C(=O)[O-])c(SC(C)(C)C)c4cc(OCc5ccc(C)cn5)ccc43)cc2)cn1.[Na+] [Compound 2] , no commentary.
9.8

====

experiment: Single-dose pharmacokinetics in beagle dogs; type: in vivo, female beagle dogs; conditions: female, beagle, dog, plasma, po, 5 mg/kg, 0.5% Methylcellulose, Fed
observed.property: bioavailability (%)
Answer format: numeric, % implied, no suffix.

Return value of bioavailability for input `CCOc1ccc(-c2ccc(Cn3c(CC(C)(C)C(=O)[O-])c(SC(C)(C)C)c4cc(OCc5ccc(C)cn5)ccc43)cc2)cn1.[Na+]` , no commentary.
19

====

assay: Phase I study: pharmacokinetics after single and multiple oral doses; assay type: in vivo; settings: human, plasma, po, 150 mg, single dose 150 mg, oral solution; read-out: t1/2 (converted)
observed.property: half-life (h)
Answer format: numeric, h implied, no suffix.

Return value of half-life for input CCOc1ccc(-c2ccc(Cn3c(CC(C)(C)C(=O)[O-])c(SC(C)(C)C)c4cc(OCc5ccc(C)cn5)ccc43)cc2)cn1.[Na+] [Compound 2] , no commentary.
11.1

====

assay: Phase I study: pharmacokinetics after single and multiple oral doses; assay type: in vivo; settings: human, plasma, oral, 150 mg, multiple dose 150 mg, Day 11; read-out: t½ (converted)
observed.property: half-life (h)
Answer format: numeric, h implied, no suffix.

Return value of half-life for input `CCOc1ccc(-c2ccc(Cn3c(CC(C)(C)C(=O)[O-])c(SC(C)(C)C)c4cc(OCc5ccc(C)cn5)ccc43)cc2)cn1.[Na+]` , no commentary.
19

====

test: Single-dose pharmacokinetics in beagle dogs; type: in vivo, female beagle dogs; details: female, beagle, dog, plasma, po, 5 mg/kg, 0.5% Methylcellulose, Fasted
observed.property: AUC(0-inf) (ng·h/mL)
Answer format: numeric, ng·h/mL implied, no suffix.

Return value of AUC(0-inf) for input `CCOc1ccc(-c2ccc(Cn3c(CC(C)(C)C(=O)[O-])c(SC(C)(C)C)c4cc(OCc5ccc(C)cn5)ccc43)cc2)cn1.[Na+]` , no commentary.
67800

====

test: Single-dose pharmacokinetics in beagle dogs; format: in vivo, female beagle dogs; details: female, beagle, dog, plasma, po, 6.5 mg/kg, 50 mg Pill, Fasted
observed.property: bioavailability
The reply should consist of the numeric value with the unit placed after it.

Return value of bioavailability for input `CCOc1ccc(-c2ccc(Cn3c(CC(C)(C)C(=O)[O-])c(SC(C)(C)C)c4cc(OCc5ccc(C)cn5)ccc43)cc2)cn1.[Na+]` , no commentary.
24%

====

experiment: Phase I study: pharmacokinetics after single and multiple oral doses; assay type: in vivo; conditions: human, plasma, oral, 50 mg, multiple dose 50 mg, Day 11
observed.property: Cmax (nM)
Answer format: numeric, nM implied, no suffix.

Return value of Cmax for input `CCOc1ccc(-c2ccc(Cn3c(CC(C)(C)C(=O)[O-])c(SC(C)(C)C)c4cc(OCc5ccc(C)cn5)ccc43)cc2)cn1.[Na+]` , no commentary.
900
